# TGI annotations
Tested on: LOX IMVI melanoma
testSummary: NCI tumour cell line growth inhibition, 48 h
readout: TGI

INSERT INTO assay_data (compound, target, readout, result) VALUES
  ('CCCCN1C(=O)N(c2ccc(OCC)cc2)C2N(CCCC)C1C(C)(C)C2(C)C (stereo not drawn)', 'LOX IMVI melanoma', 'TGI', '> 100 µM'),
  ('CC(=O)OC(/C=C/c1ccccc1)=C(OC(C)C)/C1=C(\c2ccccc2)SCCCSC1=O', 'LOX IMVI melanoma', 'TGI', '> 100 µM'),
  ('Cc1ccn2c(c1)nc1nc3ccccc3nc12', 'LOX IMVI melanoma', 'TGI', '> 100 µM');

----------
Tested on: CAKI-1 renal
testSummary: NCI tumour cell line growth inhibition, 48 h
readout: TGI

INSERT INTO results (compound, result) VALUES
  ('O=C1OC(c2ccccc2)=N/C1=C\c1cccc2ccccc12', '> 100 µM'),
  ('CCOc1ccccc1NC(=O)CC(C(=O)OC)C(=O)C(=O)OC (configuration not stated)', '> 100 µM'),
  ('CC1CC[C@]2(C(=O)O)CCC3(C)C(=CC(=O)C4[C@@]5(C)CCC(=O)C(C)(C)C5CC[C@]43C)[C@@H]2[C@H]1C (some centres not stated)', '> 100 µM'),
  ('CNc1ccc(C(=O)CC(O)CCC(C)C2OC(=O)CC(O)CC(=O)CC(O)CC(O)CC(O)CC(O)CC3(O)CC(O)C(C(=O)OC)C(CC(O[C@@H]4O[C@H](C)[C@@H](O)[C@H](N)[C@@H]4O)/C=C/C=C/C=C/C=C/C=C/C=C/C=C/C2C)O3)cc1 (some centres not stated)', '4.89 µM'),
  ('CC1NC(=O)CC(c2ccccc2)N(N=O)C1c1ccccc1 (configuration not stated)', '> 100 µM'),
  ('O=C1C=CC[C@H]2O[C@@H](COC(=O)Cc3ccccc3)C[C@H]2O1', '> 100 µM'),
  ('N#CC(NC12CC3CC(CC(C3)C1)C2)c1ccccc1C(F)(F)F (configuration not stated)', '> 100 µM'),
  ('CCOC(=O)C(=Cc1[nH]c2ccccc2c1-c1c[nH]c2ccccc12)C(=O)OCC', '30.8 µM'),
  ('O=C(NNC(=S)Nc1cccc(Cl)c1)c1cc(-c2ccccc2)nc2ccccc12', '43.1 µM'),
  ('c1ccc(CNn2nnc3ccccc32)cc1', '> 100 µM'),
  ('CCCCN1C(=O)N(c2ccc(OCC)cc2)C2N(CCCC)C1C(C)(C)C2(C)C (configuration not stated)', '93.8 µM'),
  ('C[N+](C)(C)CC1CCCCCCCCCCC1=O (configuration not stated)', '> 100 µM'),
  ('COc1ccccc1CNCCCN1C(=O)c2ccc3c4c(ccc(c24)C1=O)C(=O)N(CCCOCCCCOCCCN)C3=O', '5.13 µM'),
  ('CC(C)(C)OC(=O)NC(Cc1ccc(OCc2ccccc2)cn1)C(=O)N1CCCCC1 (configuration not stated)', '> 100 µM'),
  ('COC1=C(OC)C(=O)C(Cc2c(C)nc3sc(C)cn23)=C(C)C1=O', '37.4 µM'),
  ('CC(C)C(Nc1c2ccccc2nc2ccccc12)C(=O)O (configuration not stated)', '> 100 µM'),
  ('Cc1ccc([N+](=O)[O-])cc1S(=O)(=O)Nc1ccc(C2=NNC(c3ccccc3)C2)cc1 (configuration not stated)', '53.6 µM'),
  ('Cc1nc(-c2cc3cc([N+](=O)[O-])ccc3oc2=O)cs1', '> 100 µM'),
  ('COc1cc(C(=O)N(Cc2cccnc2)C(=S)N(Cc2cccnc2)C(=O)c2cc(OC)c(OC)c(OC)c2)cc(OC)c1OC', '> 100 µM'),
  ('CCN(CC)C(=O)Cn1c(C)cc2ccccc21', '> 100 µM'),
  ('CC(C)[Si](OC1=C(C(=O)N(C)c2cccc(Cl)c2)CCCC1)(C(C)C)C(C)C', '25.9 µM'),
  ('CC(=O)[O-].CCN(CC)c1ccc(C=NCCN=Cc2ccc(N(CC)CC)cc2[O-])c([O-])c1.[Mn+3]', '> 100 µM'),
  ('CCOc1ccccc1N=Nc1ccc2oc(=O)c(C(=O)Nc3cccc(C)c3)cc2c1', '> 100 µM'),
  ('OCC(O)COCn1nncc1Cn1ncc2c(SCc3ccccc3)ncnc21 (configuration not stated)', '> 100 µM'),
  ('COc1cc2ncnc(Nc3ccc(C)c(O)c3)c2cc1OC', '> 17.5 µM'),
  ('COc1cc2c(cc1OC)C(CC(=O)NN=C(C)C)NCC2 (configuration not stated)', '> 100 µM'),
  ('Oc1c(CN2CCOCC2)ccc2cccnc12', '> 10 µM'),
  ('N#CC(NNC(=O)Cc1ccccc1)c1c(O)ccc2ccccc12 (configuration not stated)', '25.8 µM'),
  ('Cc1cc(C(=O)Nc2ncc(Cc3cccc(C(F)(F)F)c3)s2)c2ccccc2n1', '> 100 µM'),
  ('Cc1cc(S(=O)(=O)Nc2nnc(-c3ccccc3)c(-c3ccccc3)n2)c(SCC(N)=O)cc1Cl', '> 100 µM'),
  ('N=C1C(c2nc3ccccc3s2)=C(O)CN1c1cc(C(F)(F)F)ccc1Cl', '40.4 µM'),
  ('COc1ccc(Cn2cc3c(c2-c2ccccc2)CC(C)(C)c2cnoc2-3)cc1', '> 100 µM');

----------
Test system: SNB-75 CNS
testSummary: NCI tumour cell line growth inhibition, 48 h
readout: TGI

INSERT INTO results (molecule, target, readout, result) VALUES
  ('O=P(Nc1ccc(Cl)cc1)(Oc1ccccc1)N(CCCl)CCCl (stereo not given)', 'SNB-75 CNS', 'TGI', '> 100 µM'),
  ('CCCCCCCC/C=C/CCCCCCCC(=O)OC[C@H]1O[C@@H](n2ccc(N)nc2=O)C(F)(F)[C@@H]1O', 'SNB-75 CNS', 'TGI', '> 66.1 µM'),
  ('N=C1C(c2nc3ccccc3s2)=C(O)CN1c1cc(C(F)(F)F)ccc1Cl', 'SNB-75 CNS', 'TGI', '> 100 µM'),
  ('CC1(C)C(=O)N(CCCCCCN2C(=O)C(C)(C)c3ccccc32)c2ccccc21', 'SNB-75 CNS', 'TGI', '> 100 µM'),
  ('Cc1ccc(-c2c(C#N)c(-c3ccc(Cl)cc3)c(C#N)c(=O)n2NS(=O)(=O)c2ccc(C)cc2)cc1', 'SNB-75 CNS', 'TGI', '> 100 µM');

----------
# TGI annotations
System: 786-0 renal
testSummary: NCI tumour cell line growth inhibition, 48 h
readout: TGI (µM)

INSERT INTO results (smilesrepresentation, target, readoutqualifier, number) VALUES
  ('CC(C)[Si](OC1=C(C(=O)N(C)c2cccc(Cl)c2)CCCC1)(C(C)C)C(C)C', '786-0 renal', '=', 34.2),
  ('CN1C/C=C\CCOc2cccc(c2)-c2ccnc(n2)Nc2cccc(c2)C1', '786-0 renal', '=', 0.802),
  ('COc1cc2ncnc(Nc3ccc(C)c(O)c3)c2cc1OC', '786-0 renal', '>', 25),
  ('CCOC(=O)c1nc2ccc(C(F)(F)F)cc2nc1NCc1cc(OC)c(OC)c(OC)c1', '786-0 renal', '>', 100),
  ('CCOc1ccccc1N=Nc1ccc2oc(=O)c(C(=O)Nc3cccc(C)c3)cc2c1', '786-0 renal', '>', 100),
  ('C(=Nc1ccc(-c2nc3ccccc3[nH]2)cc1)c1cccs1', '786-0 renal', '>', 100),
  ('N#C/C(=C1C=C(Br)/C(=N\O)C=C\1Cl)c1cccc2ccccc12', '786-0 renal', '=', 13.6),
  ('COc1cc(C(=O)N(Cc2cccnc2)C(=S)N(Cc2cccnc2)C(=O)c2cc(OC)c(OC)c(OC)c2)cc(OC)c1OC', '786-0 renal', '>', 100),
  ('CN1C(=O)c2cccc3cc([N+](=O)[O-])cc(c23)C1=O', '786-0 renal', '>', 10),
  ('COc1ccccc1CNCCCN1C(=O)c2ccc3c4c(ccc(c24)C1=O)C(=O)N(CCCOCCCCOCCCN)C3=O', '786-0 renal', '=', 3.84);

----------
Test system: SW-620 colon
testSummary: NCI tumour cell line growth inhibition, 48 h; in the data active = GI50 below about 0.43 µM; inactive = the rest
Outcome codes: Y for active, N for inactive

INSERT INTO assay_data (smilesrepresentation, group) VALUES
  ('COc1ccccc1CNCCCN1C(=O)c2ccc3c4c(ccc(c24)C1=O)C(=O)N(CCCOCCCCOCCCN)C3=O', 'Y'),
  ('COc1nc2ccccc2cc1-c1nc2c(cnn2-c2ccc(Br)cc2)c(=O)[nH]1', 'Y'),
  ('COc1ccc(Cn2cc3c(c2-c2ccccc2)CC(C)(C)c2cnoc2-3)cc1', 'N');
